So I've got a bunch of compounds here, and I need their IC50 values.
- TARGET: ATM (Homo sapiens (Human))
- ASSAY INFO: ATM in Cell Western Assay (pKAP1 in etoposide-treated MCF-7 cells)
- Format: cell-based
- CONDITION LABEL: pKAP1 in etoposide-treated MCF-7 cells
Counter-ions that a name gives are not always drawn.

Task: Give the reported IC50 for this compound. CN(C)CCCOc1c(NS(C)(=O)=O)cc(-c2ccc3ncc4c(c3c2)C2(CCC2)C(=O)N4C)cc1C(=O)N(C)C
Result: > 100 nM

Task: Tell us which IC50 value is on record for CCOC[C@H]1C[C@]2(C1)C(=O)N(C)c1cnc3cc(F)c(-c4cnc(OCCNC(C)C)c(NS(C)(=O)=O)c4)cc3c12
Result: 1 to 100 nM

Task: Tell me its IC50 given CC(C)NCCOc1ncc(-c2cc3c4c(cnc3cc2F)N(C)C(=O)C42CCC2)cc1NS(=O)(=O)N1CC(C#N)C1 as the entry.
Result: > 100 nM

Task: Give reported IC50 value for COc1ccc([C@H]2C[C@@]3(C2)C(=O)N(C)c2cnc4cc(F)c(-c5cnc(OCCNC(C)C)c(NS(C)(=O)=O)c5)cc4c23)cc1 [Example 421, hydrochloride]
Result: > 100 nM

Task: Input CC(C)NCCOc1ncc(-c2cc3c(cc2F)ncc2c3[C@]3(C[C@@H](N4CCOCC4)C3)C(=O)N2C)cc1NS(C)(=O)=O , output reported IC50.
Result: > 100 nM

Task: Please indicate IC50 recorded for CC(C)NCCOc1ncc(-c2cc3c(cc2F)ncc2c3[C@]3(C[C@@H](c4ccc(=O)[nH]c4)C3)C(=O)N2C)cc1NS(C)(=O)=O
Result: > 100 nM

* * *

- TARGET: ATM (Homo sapiens (Human), UniProt Q13315)
- Sequence (Q13315 whole entry): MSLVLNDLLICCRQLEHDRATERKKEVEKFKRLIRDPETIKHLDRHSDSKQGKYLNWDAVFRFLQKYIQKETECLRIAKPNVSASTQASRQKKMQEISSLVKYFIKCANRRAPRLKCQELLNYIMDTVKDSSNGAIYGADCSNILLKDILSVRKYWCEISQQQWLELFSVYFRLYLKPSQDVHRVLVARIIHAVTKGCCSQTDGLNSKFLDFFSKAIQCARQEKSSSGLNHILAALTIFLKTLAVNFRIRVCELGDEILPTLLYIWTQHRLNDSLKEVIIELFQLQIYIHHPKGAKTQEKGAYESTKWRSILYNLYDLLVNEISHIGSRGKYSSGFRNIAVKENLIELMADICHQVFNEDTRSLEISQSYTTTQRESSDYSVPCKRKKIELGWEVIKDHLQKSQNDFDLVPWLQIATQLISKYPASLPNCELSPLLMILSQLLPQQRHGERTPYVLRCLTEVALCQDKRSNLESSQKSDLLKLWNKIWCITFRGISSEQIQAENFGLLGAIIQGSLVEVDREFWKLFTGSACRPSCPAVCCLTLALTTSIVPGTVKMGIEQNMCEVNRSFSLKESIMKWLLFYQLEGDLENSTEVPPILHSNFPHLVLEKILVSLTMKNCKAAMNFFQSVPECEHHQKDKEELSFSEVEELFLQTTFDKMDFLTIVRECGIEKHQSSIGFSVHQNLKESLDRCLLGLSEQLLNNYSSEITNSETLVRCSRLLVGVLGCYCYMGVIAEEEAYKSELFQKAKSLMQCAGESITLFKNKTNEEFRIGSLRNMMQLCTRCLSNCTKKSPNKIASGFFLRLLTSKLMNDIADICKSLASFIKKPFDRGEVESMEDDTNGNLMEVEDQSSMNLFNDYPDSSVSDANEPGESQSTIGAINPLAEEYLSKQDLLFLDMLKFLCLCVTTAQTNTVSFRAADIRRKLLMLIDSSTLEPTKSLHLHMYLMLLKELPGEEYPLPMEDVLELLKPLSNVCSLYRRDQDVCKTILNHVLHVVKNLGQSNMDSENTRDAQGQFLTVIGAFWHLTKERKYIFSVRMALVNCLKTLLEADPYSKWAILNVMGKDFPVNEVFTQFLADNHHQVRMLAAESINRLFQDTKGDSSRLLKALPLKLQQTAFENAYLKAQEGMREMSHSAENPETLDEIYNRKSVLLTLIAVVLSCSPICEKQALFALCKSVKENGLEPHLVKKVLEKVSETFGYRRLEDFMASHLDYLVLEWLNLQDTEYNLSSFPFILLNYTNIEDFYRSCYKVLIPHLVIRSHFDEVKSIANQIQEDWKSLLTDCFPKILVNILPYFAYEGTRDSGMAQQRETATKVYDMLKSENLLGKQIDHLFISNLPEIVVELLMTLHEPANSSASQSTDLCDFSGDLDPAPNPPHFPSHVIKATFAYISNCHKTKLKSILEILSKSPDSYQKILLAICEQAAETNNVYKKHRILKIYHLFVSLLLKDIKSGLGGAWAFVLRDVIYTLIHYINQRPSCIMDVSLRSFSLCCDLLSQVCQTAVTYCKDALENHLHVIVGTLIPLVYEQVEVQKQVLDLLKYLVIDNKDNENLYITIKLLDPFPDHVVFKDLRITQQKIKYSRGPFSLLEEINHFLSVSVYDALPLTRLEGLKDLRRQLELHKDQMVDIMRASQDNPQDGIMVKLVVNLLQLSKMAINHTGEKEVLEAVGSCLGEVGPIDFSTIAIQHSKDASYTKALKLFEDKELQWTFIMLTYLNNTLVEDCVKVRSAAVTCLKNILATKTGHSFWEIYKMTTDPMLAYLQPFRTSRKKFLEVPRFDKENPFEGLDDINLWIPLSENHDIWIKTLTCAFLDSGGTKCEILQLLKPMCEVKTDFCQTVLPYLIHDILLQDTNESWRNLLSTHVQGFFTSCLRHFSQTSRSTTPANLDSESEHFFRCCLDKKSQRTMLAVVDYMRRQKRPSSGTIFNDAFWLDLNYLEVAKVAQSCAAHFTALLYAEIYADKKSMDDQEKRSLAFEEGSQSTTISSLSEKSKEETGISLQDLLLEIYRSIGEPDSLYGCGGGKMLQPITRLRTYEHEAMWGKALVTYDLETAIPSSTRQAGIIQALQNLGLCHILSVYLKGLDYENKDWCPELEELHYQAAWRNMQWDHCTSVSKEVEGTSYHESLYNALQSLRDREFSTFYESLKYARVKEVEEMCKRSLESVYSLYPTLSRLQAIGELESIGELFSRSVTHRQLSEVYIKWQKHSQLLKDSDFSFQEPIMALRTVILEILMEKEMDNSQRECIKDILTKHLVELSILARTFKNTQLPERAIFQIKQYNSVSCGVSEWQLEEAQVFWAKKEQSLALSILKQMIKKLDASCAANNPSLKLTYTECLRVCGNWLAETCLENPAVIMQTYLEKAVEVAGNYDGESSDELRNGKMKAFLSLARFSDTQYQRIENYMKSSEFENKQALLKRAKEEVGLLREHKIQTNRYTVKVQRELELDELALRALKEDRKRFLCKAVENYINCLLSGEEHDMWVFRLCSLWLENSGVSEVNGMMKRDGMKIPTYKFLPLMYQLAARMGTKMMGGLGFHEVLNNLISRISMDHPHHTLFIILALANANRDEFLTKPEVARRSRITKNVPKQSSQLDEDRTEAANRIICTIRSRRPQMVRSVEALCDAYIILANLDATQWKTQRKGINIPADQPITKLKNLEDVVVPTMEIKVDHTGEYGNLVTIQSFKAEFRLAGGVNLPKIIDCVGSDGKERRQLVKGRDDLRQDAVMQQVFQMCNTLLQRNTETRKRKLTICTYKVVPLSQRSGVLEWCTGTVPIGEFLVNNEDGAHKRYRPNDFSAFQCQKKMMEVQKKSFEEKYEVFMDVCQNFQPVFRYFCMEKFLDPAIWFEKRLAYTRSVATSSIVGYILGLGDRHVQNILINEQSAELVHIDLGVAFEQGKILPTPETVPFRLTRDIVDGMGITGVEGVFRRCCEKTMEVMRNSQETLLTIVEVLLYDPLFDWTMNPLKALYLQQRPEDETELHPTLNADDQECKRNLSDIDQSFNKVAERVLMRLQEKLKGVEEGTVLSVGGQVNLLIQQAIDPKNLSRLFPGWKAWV
- ASSAY INFO: ATM in Cell Western Assay (pKAP1 in etoposide-treated MCF-7 cells)
- Format: cell-based
- CONDITION LABEL: MCF-7 cells, etoposide 100 μM, 1 hr, pKAP1 readout
pIC50: −log10 of the molar value. Structures can show the parent of a compound that is named as a salt.
QUANTITY: pIC50

Task: Provide only the value of recorded pIC50 for CN1C(=O)C2(CCC2)c2c1cnc1ccc(-c3cnc(OCCCN4CCCCC4)c(NS(=O)(=O)c4cc(F)cc(Cl)c4)c3)cc21 [Example 196, hydrochloride]
Result: 7.00 to 9.00

Task: Consider the compound COc1ncc(-c2ccc3ncc4c(c3c2)C2(CCC2)C(=O)N4C)cc1S(=N)(=O)c1ccccc1 (racemic) and give its recorded pIC50.
Result: < 7.00

Task: Identify measured pIC50 associated with CN1C(=O)C2(CCC2)c2c1cnc1ccc(-c3cnc(OCCCN4CCCCC4)c(NS(=O)(=O)C(F)F)c3)cc21
Result: 7.00 to 9.00

Task: Answer with the recorded pIC50 for the compound listed here: CN1C(=O)C2(CC2)c2c1cnc1ccc(-c3ccc4c(ccc(=O)n4C)c3)cc21
Result: < 7.00

Task: Name the recorded pIC50 of the compound listed here: CCN(C)S(=O)(=O)Nc1cc(-c2ccc3ncc4c(c3c2)C2(CC2)C(=O)N4C)cnc1N1CCC(N2CCCCC2)CC1
Result: 9.00 to 9.30

Task: Note pIC50 for the compound shown: CN1C(=O)C2(CC2)c2c1cnc1ccc(-c3cnc(OCCCN4CCCC4)c(NS(=O)(=O)C4CC4)c3)cc21
Result: 7.00 to 9.00

Task: Assign pIC50 to the following record: CN1C(=O)C2(CCC2)c2c1cnc1ccc(-c3cnc(OCCCN4CCCCC4)c(NS(=O)(=O)N(C)C)c3)cc21 [Example 180, hydrochloride]
Result: 7.00 to 9.00

Task: Give pIC50 for CCCS(=O)(=O)Nc1cc(-c2ccc3ncc4c(c3c2)C2(CCC2)C(=O)N4C)cnc1OCCCN(C)C
Result: 7.00 to 9.00

Task: // Input: CC(=O)Nc1ccc(S(=O)(=O)Nc2cc(-c3ccc4ncc5c(c4c3)C3(CC3)C(=O)N5C)cnc2OCCCN(C)C)cc1 . Output its pIC50 only.
Result: 7.00 to 9.00

Task: Indicate its recorded pIC50; the compound in question is CN(C)CCCOc1ncc(-c2ccc3ncc4c(c3c2)C2(CCC2)C(=O)N4C)cc1NS(=O)(=O)CC#N
Result: 7.00 to 9.00

Task: For CN(C)CCCOc1ncc(-c2ccc3ncc4c(c3c2)C2(CC2)C(=O)N4C)cc1NS(=O)(=O)c1ccccc1 , write its pIC50.
Result: > 9.30

Task: Please report the measured pIC50 for COc1ncc(-c2ccc3ncc4c(c3c2)C2(CC2)C(=O)N4C)cc1NS(=O)(=O)c1ccccc1
Result: 7.00 to 9.00

Task: Annotate the compound CN(C)CCCOc1ncc(-c2ccc3ncc4c(c3c2)C2(CCC2)C(=O)N4C)cc1NS(=O)(=O)c1ccccc1 with its measured pIC50.
Result: 7.00 to 9.00

Task: Give me measured pIC50, please, for this compound: Cc1ccc(S(=O)(=O)Nc2cc(-c3ccc4ncc5c(c4c3)C3(CCC3)C(=O)N5C)cnc2N2CCN(C)CC2)cn1
Result: 7.00 to 9.00

Task: Supply recorded pIC50 for CN(C)CCCOc1ncc(-c2ccc3ncc4c(c3c2)C2(CC(F)C2)C(=O)N4C)cc1NS(C)(=O)=O (stereo not drawn) here.
Result: 7.00 to 9.00

Task: Query pIC50 for CN(C)CCCOc1ncc(-c2ccc3ncc4c(c3c2)C2(CN(c3ccccc3)C2)C(=O)N4C)cc1NS(=O)(=O)c1ccccc1
Result: 7.00 to 9.00

Task: Return pIC50 for the following compound: Cc1ccc(S(=O)(=O)Nc2cc(-c3ccc4ncc5c(c4c3)C3(CCC3)C(=O)N5C)cnc2N2CCC(N3CCOCC3)CC2)cc1 [Example 167, hydrochloride]
Result: 7.00 to 9.00

Task: Using known records, supply pIC50 for CN(C)CCOCc1ncc(-c2ccc3ncc4c(c3c2)C2(CCC2)C(=O)N4C)cc1NS(C)(=O)=O
Result: < 7.00

Task: Item CN(C)CCCCOc1ncc(-c2ccc3ncc4c(c3c2)C2(CC2)C(=O)N4C)cc1NS(=O)(=O)C1CC1 : provide pIC50
Result: 7.00 to 9.00

Task: Using the record for COCCN(C)CCCOc1ncc(-c2ccc3ncc4c(c3c2)C2(CCC2)C(=O)N4C)cc1NS(C)(=O)=O , state its measured pIC50.
Result: 9.00 to 9.30

Task: Supply pIC50 value. Item: CN(C)CCCOc1ncc(-c2ccc3ncc4c(c3c2)C2(CC2)C(=O)N4C)cc1NS(=O)(=O)c1ccc(OC(F)F)cc1
Result: 7.00 to 9.00

Task: Complete the entry with pIC50 for CN(C)CCCOc1ncc(-c2ccc3ncc4c(c3c2)C2(CCC2)C(=O)N4C)cc1NS(=O)(=O)N1CCNCC1
Result: 7.00 to 9.00

Task: Kindly indicate its recorded pIC50. Item: CN(C)CCCOc1ncc(-c2ccc3ncc4c(c3c2)N(C)C2(CC2)C(=O)N4C)cc1NS(=O)(=O)c1ccccc1
Result: < 7.00

Task: Provide measured pIC50 value, entry: CN1C(=O)C2(CCC2)c2c1cnc1ccc(-c3cnc(OCC(CO)N(C)C)c(NS(C)(=O)=O)c3)cc21 (stereo not drawn)
Result: < 7.00

Task: // fetch pIC50 given entry CN(C)CCCOc1ncc(-c2ccc3ncc4c(c3c2)C2(CCC2)C(=O)N4C)cc1NS(=O)(=O)c1cc(Cl)cc(C(F)(F)F)c1 [Example 154, hydrochloride]
Result: 7.00 to 9.00

Task: Recall and state the measured pIC50 for Cc1cc2ncc3c(c2cc1-c1cnc(N2CC(N(C)C)C2)c(NS(C)(=O)=O)c1)C1(CCC1)C(=O)N3C .
Result: 7.00 to 9.00

Task: Complete the entry with pIC50 for CNC1CN(c2ncc(-c3cc4c5c(cnc4cc3F)N(C)C(=O)C53CCC3)cc2NS(C)(=O)=O)C1 [Example 330, formate]
Result: 7.00 to 9.00

The measured values listed here are drawn from patent US12187742B2.
